Catalogue of IC50 readings, one per entry.
Molecular target: recombinant human 11 β-HSD1 (Homo sapiens)
Test: 11 β-HSD1 SPA Assay (Scintillation Proximity Assay)
endpoint: IC50

• CC(C)(Oc1ccc(Cl)cc1Cl)C(=O)N[C@H]1C[C@H]2CC[C@@H](C1)N2c1ccc(NC(=O)C(F)(F)F)cc1 = < 200 nM
• CC(C)(Oc1ccc(Cl)cc1)C(=O)N[C@H]1C[C@H]2CC[C@@H](C1)N2c1ccc(S(C)(=O)=O)cn1 = < 200 nM
• CC(C)(C(=O)N[C@H]1C[C@H]2CC[C@@H](C1)N2c1ccc(C(=O)NCC(F)(F)F)cn1)c1ccc(Cl)cc1 = < 200 nM
• CC(C)(Oc1ncc(Cl)cc1Cl)C(=O)N[C@H]1C[C@H]2CC[C@@H](C1)N2c1ccc(C(N)=O)cn1 = < 200 nM
• C[C@H](NC(=O)c1ccc(N2C3CCC2CC(NC(=O)C(C)(C)Oc2cc(F)c(F)cc2Cl)C3)nc1)C(F)(F)F (stereo partly shown) = < 200 nM
• CC(C)(Oc1ccc(Cl)cc1Cl)C(=O)N[C@H]1C[C@H]2CC[C@@H](C1)N2c1ccc(NC(=O)CC(F)(F)F)cc1F = < 200 nM
• CC(C)(Oc1ncc(Cl)cc1F)C(=O)N[C@H]1C[C@H]2CC[C@@H](C1)N2c1ccc(S(N)(=O)=O)cn1 = < 2000 nM
• CC(C)(Oc1cc(F)ccc1C(F)(F)F)C(=O)N[C@H]1C[C@H]2CC[C@@H](C1)N2c1ccc(C(N)=O)cn1 = < 200 nM
• CS(=O)(=O)c1ccc(N2[C@@H]3CC[C@H]2C[C@@H](NC(=O)C2(c4ccc(F)c(F)c4)CC2)C3)nc1 = < 2000 nM
• CC(C)(CO)NC(=O)c1ccc(N2[C@@H]3CC[C@H]2C[C@@H](NC(=O)C(C)(C)Oc2ccc(Cl)cc2Cl)C3)nc1 = < 200 nM
• CC(C)(Oc1ccc(F)cc1C(C)(C)O)C(=O)N[C@H]1C[C@H]2CC[C@@H](C1)N2c1ccc(C(=O)NCC(F)F)cn1 = < 200 nM
• C[C@H](CO)NC(=O)c1ccc(N2C3CCC2CC(NC(=O)C(C)(C)Oc2ccc(Cl)cc2Cl)C3)nc1 (stereo partly shown) = < 200 nM
• CC(C)(Oc1ccc(Cl)cc1OC(F)(F)F)C(=O)N[C@H]1C[C@H]2CC[C@@H](C1)N2c1ccc(C(=O)NCC(F)F)cn1 = < 200 nM

====

Catalogue of IC50 readings, one per entry.
Target: recombinant human 11 β-HSD1 (Homo sapiens, UniProt P28845)
Sequence (P28845 whole entry): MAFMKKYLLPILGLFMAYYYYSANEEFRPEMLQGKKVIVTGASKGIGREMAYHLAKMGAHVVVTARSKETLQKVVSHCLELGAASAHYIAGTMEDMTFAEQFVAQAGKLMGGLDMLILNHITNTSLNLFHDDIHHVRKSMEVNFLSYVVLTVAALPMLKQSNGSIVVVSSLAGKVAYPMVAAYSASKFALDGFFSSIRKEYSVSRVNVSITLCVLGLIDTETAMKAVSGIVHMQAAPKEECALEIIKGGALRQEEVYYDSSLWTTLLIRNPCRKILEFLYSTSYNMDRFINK
Experiment: 11 β-HSD1 SPA Assay (Scintillation Proximity Assay)
endpoint: IC50

- CC(C)(Oc1ccc(Cl)cc1Cl)C(=O)NC1CC2CCC(C1)N2c1ccc(C(=O)NCC(N2CCOCC2)C(F)(F)F)cn1 (stereo not drawn) [Example 470]: < 200 nM
- CC(C)(Oc1ccc(Cl)cc1Cl)C(=O)N[C@H]1C[C@H]2CC[C@@H](C1)N2c1ccc(C(=O)NC2(CO)CC2)cn1 [Example 384]: < 200 nM
- CC(C)(Oc1cccc2[nH]ccc12)C(=O)N[C@H]1C[C@H]2CC[C@@H](C1)N2c1ccc(C(=O)NCC(F)(F)F)cn1 [Example 366]: < 200 nM

====

Target: recombinant human 11 β-HSD1 (Homo sapiens, UniProt P28845)
Assay: 11 β-HSD1 SPA Assay (Scintillation Proximity Assay)
endpoint: IC50

• NC(=O)c1ccc(N2[C@@H]3CC[C@H]2C[C@@H](NC(=O)C2(c4cccc(F)c4)CC2)C3)nc1 [Example 104] = < 200 nM
• O=C(N[C@H]1C[C@H]2CC[C@@H](C1)N2c1ncccc1C(F)(F)F)C1(c2ccc(Cl)cc2)CC1 [Example 5] = < 2000 nM
• CC(C)(Oc1ccc(F)cc1Cl)C(=O)N[C@H]1C[C@H]2CC[C@@H](C1)N2c1ccc(S(N)(=O)=O)cn1 [Example 158] = < 200 nM
• CC(C)(Oc1ccc(Cl)cc1Cl)C(=O)NC1CC2CCC(C1)N2c1ccc(C(=O)N2CC[C@@H](O)C2)cn1 (some centres unmarked) [Example 461] = < 200 nM
• CC(C)(Oc1ccc(Cl)c(Cl)c1)C(=O)N[C@H]1C[C@H]2CC[C@@H](C1)N2c1ccc(C(=O)NC2CC2)cn1 [Example 42] = < 200 nM
• CC(C)(Oc1ccc(F)c(F)c1)C(=O)N[C@H]1C[C@H]2CC[C@@H](C1)N2c1ccc(S(C)(=O)=O)cc1 [Example 209] = < 2000 nM
• O=C(NC1CC1)c1ccc(N2[C@@H]3CC[C@H]2C[C@@H](NC(=O)C2(c4ccc(Cl)cc4)CC2)C3)cc1F [Example 119] = < 200 nM
• CC(C)(Oc1ccc(Cl)cc1OC(F)(F)F)C(=O)NC1CC2CCC(C1)N2c1ccc(C(=O)N2CCC[C@H]2CO)cn1 (some centres unmarked) [Example 455] = < 200 nM
• CC(C)(CN1CCCC1)NC(=O)c1ccc(N2[C@@H]3CC[C@H]2C[C@@H](NC(=O)C(C)(C)Oc2ccc(Cl)cc2Cl)C3)nc1 [Example 350] = < 200 nM
• CC(C)(Sc1ccc(Cl)cc1Cl)C(=O)N[C@H]1C[C@H]2CC[C@@H](C1)N2c1ccc(C(N)=O)cn1 [Example 286] = < 200 nM
• COc1ccc(OC(C)(C)C(=O)N[C@H]2C[C@H]3CC[C@@H](C2)N3c2ccc(S(C)(=O)=O)cn2)cc1 [Example 180] = < 200 nM
• CC(C)(Oc1cc(F)c(C(C)(C)O)cc1Cl)C(=O)N[C@H]1C[C@H]2CC[C@@H](C1)N2c1ccc(C(=O)NCC(F)F)cn1 [Example 304] = < 200 nM
• C[C@H](NC(=O)c1ccc(N2C3CCC2CC(NC(=O)C(C)(C)Oc2ccc(Cl)cc2C(F)F)C3)nc1)C(F)(F)F (some centres unmarked) [Example 424] = < 200 nM
• CC(C)(Oc1ccc(F)cc1Cl)C(=O)N[C@H]1C[C@H]2CC[C@@H](C1)N2c1ccc(-c2nc(C(F)(F)F)n[nH]2)cn1 [Example 330] = < 2000 nM

====

Target: recombinant human 11 β-HSD1 (Homo sapiens)
Construct: made in house; host or cells: E. coli
Test: 11 β-HSD1 SPA Assay (Scintillation Proximity Assay)
Type: biochemical
pIC50: −log10 of the molar value.
endpoint: pIC50

* CC(C)(Oc1ccc2ccccc2c1Cl)C(=O)N[C@H]1C[C@H]2CC[C@@H](C1)N2c1ccc(C(N)=O)cn1 | > 6.70
* C[C@@H](NC(=O)c1ccc(N2C3CCC2CC(NC(=O)C(C)(C)Oc2cc(F)c(F)cc2Cl)C3)nc1)C(F)(F)F (stereo partly shown) | > 6.70
* CC(C)(Oc1ccc(C(F)(F)F)cc1)C(=O)N[C@H]1C[C@H]2CC[C@@H](C1)N2c1ccc(S(N)(=O)=O)cn1 | > 5.70
* CC(C)(Oc1ccc(F)cc1F)C(=O)N[C@H]1C[C@H]2CC[C@@H](C1)N2c1ccc(S(C)(=O)=O)cn1 | > 6.70
* CC(C)(Oc1ccc(F)c(Cl)c1Cl)C(=O)N[C@H]1C[C@H]2CC[C@@H](C1)N2c1ccc(C(=O)NCC(F)F)cn1 | > 6.70
* CC(C)(Oc1cc(F)c(F)cc1F)C(=O)N[C@H]1C[C@H]2CC[C@@H](C1)N2c1ccc(S(C)(=O)=O)cn1 | > 6.70
* CC(C)(Oc1ccc(Cl)cc1Cl)C(=O)N[C@H]1C[C@H]2CC[C@@H](C1)N2c1ccc(S(N)(=O)=O)cn1 | > 6.70

====

Target: recombinant human 11 β-HSD1 (Homo sapiens)
Assay: 11 β-HSD1 SPA Assay (Scintillation Proximity Assay)
Catalogue of IC50 readings, one per entry.
endpoint: IC50

* CC(C)(Oc1ccccc1C(F)(F)F)C(=O)N[C@H]1C[C@H]2CC[C@@H](C1)N2c1ccc(S(N)(=O)=O)cn1 | < 0.2 µM
* O=C(NCC(F)(F)F)c1ccc(N2[C@@H]3CC[C@H]2C[C@@H](NC(=O)C2(c4ccc(Cl)cc4)CC2)C3)nc1 | < 0.2 µM
* CC(C)(Oc1ccc(Cl)cc1C(F)(F)F)C(=O)N[C@H]1C[C@H]2CC[C@@H](C1)N2c1ccc(S(N)(=O)=O)cn1 | < 0.2 µM
* CC(C)(Oc1cc(CC(=O)O)c(Cl)cc1Cl)C(=O)N[C@H]1C[C@H]2CC[C@@H](C1)N2c1ccc(C(=O)NCC(F)(F)F)cn1 | < 0.2 µM
* CC(C)(Oc1c(Cl)cc(F)cc1Cl)C(=O)N[C@H]1C[C@H]2CC[C@@H](C1)N2c1ccc(S(N)(=O)=O)cn1 | < 0.2 µM
* CC(C)(Oc1ccc(F)cc1C(F)(F)F)C(=O)N[C@H]1C[C@H]2CC[C@@H](C1)N2c1ccc(C(=O)NCC(F)F)cn1 | < 0.2 µM
